# Tested on: SK-MEL-2
# assay.protocol: Cytotoxicity against human SK-MEL-2 cells after 72 hrs
# Type: functional
# applied.conditions: SK-MEL-2, 72 h, read-out: ED50 (the source's name)
measurement.name: EC50 (µg/mL)
Reply with just the number (in µg/mL).

CC(=O)OC[C@]1(O)C(=O)O[C@@H]2C[C@]3(C)CC[C@]4(C)[C@@H](CC[C@@H]5[C@@]6(C)CCC(=O)C(C)(C)[C@@H]6CC[C@]54C)[C@@H]3[C@@H]21 = 20
C=C1C(=O)O[C@@H]2C[C@]3(CO)CC[C@]4(C)[C@@H](CC[C@@H]5[C@@]6(C)CCC(=O)C(C)(C)[C@@H]6CC[C@]54C)[C@@H]3[C@H]12 [OCHRACEOLIDE E] = 11.9

molecule CC(=O)OC[C@]1(OC(C)=O)C(=O)O[C@@H]2C[C@]3(C)CC[C@]4(C)[C@@H](CC[C@@H]5[C@@]6(C)CCC(=O)C(C)(C)[C@@H]6CC[C@]54C)[C@@H]3[C@@H]21 , EC50 observed: 6.2

----------
# assay.protocol: Cytotoxicity against human U373 cells after 96 hrs
# Type: functional, U-373MG ATCC
# applied.conditions: U373 MG, read-out: ED50 (the source's name)
measurement.name: EC50 (µg/mL)
Could you give me the number in µg/mL? Just the number is fine.

C=C1C(=O)O[C@@H]2C[C@]3(CO)CC[C@]4(C)[C@@H](CC[C@@H]5[C@@]6(C)CCC(=O)C(C)(C)[C@@H]6CC[C@]54C)[C@@H]3[C@H]12 [OCHRACEOLIDE E] = 8.6

Briefly, EC50 measured for CC1(C)C(=O)CC[C@]2(C)[C@H]3CC[C@H]4[C@@H]5[C@H]6[C@@H](C[C@]5(C)CC[C@@]4(C)[C@]3(C)CC[C@@H]12)OC(=O)[C@@]6(O)CO [OCHRACEOLIDE D] : 3.9

----------
# assay.protocol: Cytotoxicity against human multidrug-resistant KBV1 cells in absence of vinblastine after 72 hrs
# Format: functional
# applied.conditions: KB-V1, 72 h, read-out: ED50 (the source's name)
Entries and their EC50

CC1(C)C(=O)CC[C@]2(C)[C@H]3CC[C@H]4[C@@H]5[C@H]6[C@@H](C[C@]5(C)CC[C@@]4(C)[C@]3(C)CC[C@@H]12)OC(=O)[C@@]6(O)CO [OCHRACEOLIDE D] = > 20 µg/mL
CC(=O)OC[C@]1(O)C(=O)O[C@@H]2C[C@]3(C)CC[C@]4(C)[C@@H](CC[C@@H]5[C@@]6(C)CCC(=O)C(C)(C)[C@@H]6CC[C@]54C)[C@@H]3[C@@H]21 = 14.6 µg/mL
CC(=O)OC[C@]1(OC(C)=O)C(=O)O[C@@H]2C[C@]3(C)CC[C@]4(C)[C@@H](CC[C@@H]5[C@@]6(C)CCC(=O)C(C)(C)[C@@H]6CC[C@]54C)[C@@H]3[C@@H]21 = 18.3 µg/mL

Shift focus to the following entry.
Lab book: EC50 of C=C1C(=O)O[C@@H]2C[C@]3(CO)CC[C@]4(C)[C@@H](CC[C@@H]5[C@@]6(C)CCC(=O)C(C)(C)[C@@H]6CC[C@]54C)[C@@H]3[C@H]12 [OCHRACEOLIDE E] noted as > 20 µg/mL
